# molecule, melting point
records = [
    ("CCCCCCCCC1(COc2ccc(N)cc2)CCc2c(C)c(OC(C)=O)c(C)c(C)c2O1 (stereo not given)", "112 to 114 °C"),
    ("Cc1c(CC(=O)NCCO[N+](=O)[O-])cc(-c2ccc(S(C)(=O)=O)cc2)n1-c1ccc(F)cc1", "135 °C"),
    ("OCCNN=C(Cc1ccncc1)c1ccc(F)cc1", "122 to 123 °C"),
    ("CCNc1nc(=O)n(Cc2ccc(OC)c(OC3CCCC3)c2)c2nc(C(C)C)[nH]c12", "110 to 115 °C"),
    ("CC1CN(c2ccc(Cl)cc2)N=C1NCC(F)(F)F (stereo not given)", "84 to 86 °C"),
]
